test system: E. coli TESEC Mtb Alr; test: growth (OD600 after 10 h); higher = more growth (less inhibition); details: arabinose 1000 nM; compound 0.1 mM; raw OD600 reference: median of DMSO wells 0.294, cell-free background 0.041
Structures can show the parent of a compound that is named as a salt.
measuredAttribute: growth
I only need the number, thanks.

Worked cases, growth given:
molecule	growth
CNCC(O)c1ccc(OC(=O)C(C)(C)C)c(OC(=O)C(C)(C)C)c1 (centres undefined) [Dipivefrin hydrochloride]	0.239
C[C@H]1NC(=O)NC1=O	0.323
CC1=C(/C=C/C(C)=C/C=C/C(C)=C/C(=O)O)C(C)(C)CCC1	0.309
CCCCNc1c(C(=O)OCC)c(C)nc2c1cnn2CC [Tracazolate hydrochloride]	0.203
CCN(CC)CCc1nc(-c2ccccc2)no1 [Oxalamine citrate salt]	0.273
Nc1ccc(S(=O)(=O)NC(=O)c2ccccc2)cc1 [Sulfabenzamide]	0.321

Tell me the measured growth of Cc1c(NC(=O)c2cccnc2)c(=O)n(-c2ccccc2)n1C , please.
0.305

GET /values?readout=growth&item= Nc1c2ccccc2nc2ccccc12
0.0397

Look up growth: CC(C)/N=c1\cc2n(-c3ccc(Cl)cc3)c3ccccc3nc-2cc1Nc1ccc(Cl)cc1
0.231

Need growth of N[C@@H](C(=O)N[C@@H]1C(=O)N2C(C(=O)O)=C(Cl)CC[C@H]12)c1ccccc1 , thanks.
0.318

growth for CCCCOc1ccc(OCCCN2CCOCC2)cc1 [Pramoxine hydrochloride] ?
0.268

Reported growth for CCCC1C(=O)N2C(N(C)C)=Nc3ccc(C)cc3N2C1=O (centres undefined) : what is it?
0.287

Which growth reading was recorded for the molecule CCN(CC)CCNC(=O)c1cc(Cl)c(N)cc1OC [Metoclopramide monohydrochloride] ?
0.278

GET /values?readout=growth&item= O=C1CCc2cc(OCCCCc3nnnn3C3CCCCC3)ccc2N1
0.194
